Taken from ChEMBL document CHEMBL4513216.

- System: Plasmodium falciparum
- experimental.protocol: Screen against P. falciparum Asexual Blood Stage (ABS), at 5uM
- Type: functional, Dd2
- experimental.conditions: tested at 5 uM
About 2,100 (3.2%) of roughly 65,000 compounds showed an effect of 50% or more. The median lay at about -52%. The full list was thinned out, with strong results kept by preference.
recorded.endpoint: INHIBITION (%)
# unit: % | format: bare number

Guide cases for INHIBITION, answers given:
Query CN(C[C@@H]1CCC[C@@H]2CN(c3ncccn3)C[C@@H]21)C1CC1 yields INHIBITION of 17.5

Query Cc1csc(N2CCN(CC(=O)Nc3ccncc3)CC2C)n1 (stereo not given) yields INHIBITION of -32.7

Query COCCN(C)C[C@@H]1CCC[C@@H]2CN(c3ncccn3)C[C@@H]21 yields INHIBITION of 33.9

Query CN(C)C[C@@H]1CCC[C@@H]2CN(c3ncccn3)C[C@@H]21 yields INHIBITION of 44.8

Query O=C(NCc1nncn1-c1ccccc1)C1CCCCC1 yields INHIBITION of -107

Query O=C(NCCc1cccnc1)c1cn(CCN2CCNCC2)nn1 yields INHIBITION of -75.5

Query CS(=O)(=O)CCNC(=O)c1ccc(-c2ccco2)[nH]c1=O yields INHIBITION of -78.3

Query CC(=O)N1CCC2(CC1)CN(C(=O)c1cccnc1)c1ccc(F)cc12 yields INHIBITION of -31.7

Continuing:
Query O=C(O)c1cn(CC2CCCN(c3nccc4occc34)C2)nn1 (stereo not given) yields INHIBITION of -30.1

Query Cc1nc(C(=O)N(C)[C@@H]2CCC[C@@H](Oc3ccccc3)[C@@H]2O)co1 yields INHIBITION of -3.45

---

- Tested on: Plasmodium falciparum
- experimental.protocol: Screen against P. falciparum Asexual Blood Stage (ABS), at 5uM
- Type: functional, Dd2
- experimental.conditions: tested at 5 uM
Out of some 65,000 compounds screened, about 2,100 (3.2%) showed an effect of 50% or more. The median lay at about -52%. The sample as a whole holds a higher share of strong results than the screen did.
Labelling: INHIBITION reported below 20% becomes Yes; at or above becomes No.

Qu. Say whether its INHIBITION is strictly beneath 20%. Entry: COc1ccc(-c2ccnc(C3CCNCC3)c2)cc1
Ans. No

Continuing:
Qu. Say whether its INHIBITION is strictly beneath 20%. Entry: COCCN1CCOCC12CCN(c1nccs1)CC2
Ans. Yes

---

- System: Plasmodium falciparum
- experimental.protocol: Screen against P. falciparum Asexual Blood Stage (ABS), at 5uM
- Assay type: functional, Dd2
- experimental.conditions: tested at 5 uM
Among all 65,000 compounds or so, about 2,100 (3.2%) showed an effect of 50% or more. The median lay at about -52%. What follows is part of a selection rich in strong results, with near analogues and random picks from the rest.
recorded.endpoint: INHIBITION (%)
# unit: % | format: bare number

Query CN(Cc1cccnc1)[C@@H]1CN(c2ccccn2)[C@@H]2CCCO[C@H]12 yields INHIBITION of -39.4

Query CN(Cc1ccco1)[C@@H]1CN(CC2CCOCC2)[C@@H]2CCCO[C@H]12 yields INHIBITION of -0.241

Query CC(C)(C)n1ncc2c1CCCC2NCc1ccc2ncccc2c1 (stereo not given) yields INHIBITION of -1.42

Query O=C(c1ncccn1)N1C[C@H]2CCC[C@@]2(COc2ccccn2)C1 yields INHIBITION of 14.9

Then there is this compound:
Query Cc1ccc(N2CC[C@@H]3[C@@H]2CCN3C(=O)Cc2ccsc2)nn1 yields INHIBITION of -93.9

---

- System: Plasmodium falciparum
- experimental.protocol: Screen against P. falciparum Asexual Blood Stage (ABS), at 5uM
- Format: functional, Dd2
- experimental.conditions: tested at 5 uM
Out of some 65,000 compounds screened, about 2,100 (3.2%) showed an effect of 50% or more. The median lay at about -52%. Shown is part of a subset that was picked to be rich in strong results.
Measured INHIBITION accompanies every entry in the list below.
# unit: % | format: bare number

Guide cases for INHIBITION, answers given:
Query COCC(=O)N1CCC2(CCC2NS(=O)(=O)c2ccccc2)CC1 (stereo not given) yields INHIBITION of -23.9

Query O=C(Cc1ccsc1)N1CCC(c2noc(-c3cccnc3)n2)CC1 yields INHIBITION of -53.4

Query O=C1CC[C@H]2[C@H](CCN2S(=O)(=O)C2CC2)N1CCN1CCCC1 yields INHIBITION of -109

Query CCn1c(=O)c2sccc2n(CC(=O)Nc2cccc(Cl)c2)c1=O yields INHIBITION of -40

Then there is this compound:
Query Cn1c(=O)c2sccc2n(CC(=O)Nc2cccc(Cl)c2)c1=O yields INHIBITION of 59.4

---

Measured INHIBITION accompanies every entry in the list below.
- Test system: Plasmodium falciparum
- experimental.protocol: Screen against P. falciparum Asexual Blood Stage (ABS), at 5uM
- Format: functional, Dd2
- experimental.conditions: tested at 5 uM
The whole screen tested about 65,000 compounds, of which about 2,100 (3.2%) showed an effect of 50% or more. The median lay at about -52%. Shown is part of a subset that was picked to be rich in strong results.
# unit: % | format: bare number

Guide cases for INHIBITION, answers given:
Query CCNC(=O)[C@@H]1C[C@@H](N)CN1Cc1ccc2cccc(Cl)c2n1 yields INHIBITION of 31.4

Query Cc1cc2[nH]c(=O)oc2cc1S(=O)(=O)N1C[C@@H](N(C)C)[C@H](C(C)C)C1 yields INHIBITION of -101

Query c1ccc(OCC2CC3(CCN(CC4CCOCC4)CC3)CO2)nc1 (centres undefined) yields INHIBITION of -83.4

Query Cc1cccc(CN2CCCC3(Cc4ccccc4CNC3=O)C2)n1 (centres undefined) yields INHIBITION of -31.3

Query COc1c(CNC2CCc3cc(F)ccc32)c(C)nn1C (centres undefined) yields INHIBITION of 28.1

Query CCNC(=O)[C@@H]1C[C@H](N)CN1Cc1ccc(Sc2ccc(C)cc2)o1 yields INHIBITION of 64.6

Query Cc1ccc(S(=O)(=O)N2C[C@H](C3CC3)[C@@H](N)C2)cc1F yields INHIBITION of 14.8

Query Cc1ccc(C(=O)N2CCOC3(CCCC3)C2)c(=O)[nH]1 yields INHIBITION of -106

Query CN(Cc1ccc(F)cc1F)Cc1cc2c(cc1Br)OCCO2 yields INHIBITION of -30.1

Query COc1ccc(CNCc2c(C(C)C)nn(C)c2N(C)C)cn1 yields INHIBITION of -26.4

Continuing:
Query Cc1nc(-c2cccnc2)ncc1C(=O)N1CCC(C(C)N(C)C)CC1 (centres undefined) yields INHIBITION of -79.6

Query O=C1NCc2ccccc2CC12CCCN(Cc1ccsc1)C2 (centres undefined) yields INHIBITION of 64.3

Query CCNC(=O)[C@@H]1C[C@@H](N)CN1Cc1ccc(Sc2ccc(C)cc2)o1 yields INHIBITION of 63.9

Query Cc1noc(NC(=O)c2cccc(Br)c2)n1 yields INHIBITION of -81.9

---

- System: Plasmodium falciparum
- experimental.protocol: Screen against P. falciparum Asexual Blood Stage (ABS), at 5uM
- Assay type: functional, Dd2
- experimental.conditions: tested at 5 uM
About 2,100 (3.2%) of roughly 65,000 compounds showed an effect of 50% or more. The median lay at about -52%. This excerpt belongs to a sample that is enriched for strong results.
We use -50% as the dividing line for INHIBITION: on or above the line is YES, below is NO.

Qu. Textbook exercise: given the entry Cc1ccc(Oc2c(F)cccc2OC[C@@H](N)CC(C)C)cc1 , state whether its INHIBITION is greater than or equal to -50%.
Ans. YES

Continuing:
Qu. Textbook exercise: given the entry Cc1[nH]c2ccccc2c1-c1ccnc(N[C@H](CO)CC(C)C)n1 , state whether its INHIBITION is greater than or equal to -50%.
Ans. YES

Qu. Textbook exercise: given the entry CCc1nc(C2CCCN2Cc2nnc(C3CCC3)o2)no1 (stereo unspecified) , state whether its INHIBITION is greater than or equal to -50%.
Ans. NO

Qu. Textbook exercise: given the entry COc1ccc2c(ccn2CC(=O)NC[C@@H]2CCCN3CCCC[C@H]23)c1 , state whether its INHIBITION is greater than or equal to -50%.
Ans. NO

Qu. Textbook exercise: given the entry O=C1CC2(CCCNC2)C(=O)N1Cc1ccc(Cl)cc1 (stereo unspecified) , state whether its INHIBITION is greater than or equal to -50%.
Ans. YES

Qu. Textbook exercise: given the entry CN(C)CC(C)(C)Cn1cnc(-c2ccccc2)c1-c1ccncc1 , state whether its INHIBITION is greater than or equal to -50%.
Ans. YES
